Tested on: Aspergillus fumigatus
METHOD: Antimycotic in vitro activity, serial dilution test (MIC)
Type: cell-based
CONDITION_DETAILS: Sabouraud's test medium, 28-37° C., 96 hours, read-out: MIC values in μg/ml of nutrient medium
MEASUREMENT_LABEL: MIC (µg/mL)

A = CC(C)(C#N)C(O)(CCc1ccc(Cl)cc1)Cn1cncn1 (stereo not shown)
B = CC(C)(C#N)C(O)(COc1ccc(-c2ccccc2)cc1)Cn1cncn1 (stereo not shown)
C = CC(C)(C#N)C(O)(CSc1ccc(Br)cc1)Cn1cncn1 (stereo not shown)
D = CC(C)(C#N)C(O)(CSc1ccc(Cl)cc1)Cn1cncn1 (stereo not shown)
Consider the compounds listed above. Rank them by MIC in ascending numerical order. Answer by naming the labels in the order asked.
B, C, D, A
(B: 2 µg/mL, C: 4 µg/mL, D: 8 µg/mL, A: 16 µg/mL)

###

System: Candida albicans
METHOD: Antimycotic in vitro activity, serial dilution test (MIC)
Format: cell-based
CONDITION_DETAILS: meat extract/dextrose broth, 28-37° C., 24 to 96 hours, read-out: MIC values in μg/ml of nutrient medium
MEASUREMENT_LABEL: MIC (µg/mL)

a = CC(C)(C#N)C(O)(CSc1ccc(Cl)cc1)Cn1cncn1 (stereo not shown)
b = CC(C)(C#N)C(O)(COc1ccc(-c2ccccc2)cc1)Cn1cncn1 (stereo not shown)
c = CC(C)(C#N)C(O)(CCc1ccc(Cl)cc1)Cn1cncn1 (stereo not shown)
d = CC(C)(C#N)C(O)(CSc1ccc(Br)cc1)Cn1cncn1 (stereo not shown)
// TODO: order the 4 compounds above by MIC, descending Reply: labels, ordered per the request.
c, d, a, b
(c: 16 µg/mL, d: 8 µg/mL, a: 4 µg/mL, b: 2 µg/mL)
